System: HCC1599
assay-name: normalised response (% of control), CellTiter-Glo; higher = more viable cells (100 = DMSO, 0 = benzethonium chloride kill control)
cond: incubation time: 72 h
endpoint-label: normalised response

CC(=O)Nc1ccc(C(=O)Nc2ccccc2N)cc1 [Tacedinaline] (1 nM) :: 109%
NC(=O)Nc1cc(-c2cccc(F)c2)sc1C(=O)N[C@H]1CCCNC1 [AZD7762] (0.1 nM) :: 89.9%

### Prompt So what does the record say about normalised response for O=C(O)c1ccc(-c2c[nH]c3ncc(-c4ccccc4)cc23)cc1C1CCCC1 (10 nM) ?
### Response 108%

### Prompt Can you look up the measured normalised response of CC(=O)Nc1ccc(C(=O)Nc2ccccc2N)cc1 [Tacedinaline] (0.1 nM) for me?
### Response 100%
